Tested on: Aedes aegypti
test.details: In vitro Warm Body assay, mosquitoes landing on treated warm body
Type: in vivo
assay.setup: 1% in ethanol (Table 6)
quantity.kind: number of mosquitoes landed on the Warm Body
// keep it numeric: no unit symbol after the value

Past entries and their recorded results:
c1ccc2c(c1)CC1COCOC21 (stereo not drawn)
2
C[C@@H]1O[C@H](C)[C@@H]2Cc3ccccc3[C@@H]2O1 (racemic)
2
Cc1ccc2c(c1)[C@H]1OCOC[C@@]1(C)C2 (racemic)
5
CC1(C)OC[C@@]2(C)Cc3ccccc3[C@H]2O1 (racemic)
2
Cc1ccc2c(c1)CCC(C)(CO)C2 (racemic)
3

Q: Quick one: give measured number of mosquitoes landed on the Warm Body for Cc1ccc2c(c1)CC(CO)C2 (racemic)
A: 5

Q: Fill in number of mosquitoes landed on the Warm Body for record Cc1ccc2c(c1)[C@H]1OCOC[C@H]1C2 (racemic)
A: 8

====

Tested on: Ixodes ricinus
test.details: In vitro Warm Plate Assay for ticks
Assay type: in vivo
assay.setup: Ixodes ricinus, 0.0053% in ethanol (Table 12); read-out: percentage of ticks affected on the Warm Plate
quantity.kind: pest or weed control at 0.0053 % (%)
API: value field is a number in %; no unit string.

c1ccc2c(c1)CC1COCOC21 (stereo not shown)
0
Cc1ccc2c(c1)CC(C)(CO)C2 (stereo not shown)
15
CC1CCC(C(C)(C)O)C(O)C1 (stereo not shown) [PMD, reference compound]
12

Q: Identify measured pest or weed control at 0.0053 % associated with Cc1cc(C)c2c(c1)CC(C)(CO)C2 (racemic)
A: 7

====

Tested on: Ixodes ricinus
test.details: In vitro Warm Plate Assay for ticks
Format: in vivo
assay.setup: Ixodes ricinus, 0.04% (Table 11); read-out: percentage of ticks affected on the Warm Plate
quantity.kind: pest or weed control at 0.04 % (%)
Report the value in % with no unit label.

CC(C)(C)c1ccc2c(c1)CC1(COC1)C2
17
Cc1cc(C)c2c(c1)CC(C)(CO)C2 (racemic) [ingredient #1]
57
COCC1(C)Cc2ccc(C)cc2C1 (stereo not drawn)
17
Cc1ccc2c(c1)CC(C)(C(C)O)C2 (stereo not drawn) [1-(2,5-dimethyl-2-indanyl)-1-ethanol]
0
Cc1ccc2c(c1)CC(C)(CO)C2 (stereo not drawn) [ingredient #2]
0

Then there is this compound:
Q: Identify measured pest or weed control at 0.04 % corresponding to CC1(CO)Cc2ccccc2C1 [(2-methyl-1,3-dihydroinden-2-yl)methanol]
A: 14

====

Below, each entry is listed alongside its reported number of mosquitoes landed on the Warm Body.
System: Aedes aegypti
test.details: In vitro Warm Body assay, mosquitoes landing on treated warm body
Type: in vivo
assay.setup: 1% in ethanol (Table 6)
Lab note: record the figure alone, no unit after it.

Past entries and their recorded results:
Cc1ccc2c(c1)[C@@H]1O[C@H](C)OC[C@]1(C)C2
10
CC(=O)C1(C)Cc2ccc(C)cc2C1 (racemic)
6
CC1(CO)Cc2ccccc2C1 [(2-methyl-1,3-dihydroinden-2-yl)methanol]
1

Q: Supply reported number of mosquitoes landed on the Warm Body belonging to this compound: Cc1ccc2c(c1)[C@H]1OC(C)(C)OC[C@@]1(C)C2 (racemic)
A: 11

====

Test system: Aedes aegypti
test.details: In vitro Warm Body assay, mosquitoes landing on treated warm body
Assay type: in vivo
assay.setup: 0.0016% in ethanol (Table 6)
// reported number of mosquitoes landed on the Warm Body per item
Just the number, please, no unit attached.

These solved cases illustrate the format of a correct answer.
CC1OC(C)C2Cc3ccccc3C2O1 (stereo not drawn)
58
C[C@H]1O[C@@H]2c3ccccc3C[C@@H]2[C@@H](C)O1 (racemic)
17
CC1(C)OC[C@H]2Cc3ccccc3[C@H]2O1 (racemic)
30
OCC1Cc2ccccc2C1 [2,3-dihydro-1H-inden-2-ylmethanol]
32
Cc1ccc2c(c1)C[C@]1(C)COC(C)(C)O[C@H]21 (racemic)
51
Cc1ccc2c(c1)[C@@H]1O[C@H](C)OC[C@]1(C)C2
40
Cc1ccc2c(c1)CC(CO)C2 (racemic)
65
CC1(CO)Cc2ccccc2C1 [(2-methyl-1,3-dihydroinden-2-yl)methanol]
65

From here, focus on the item given below.
Q: State, in one line, measured number of mosquitoes landed on the Warm Body of C[C@@H]1O[C@H](C)[C@@H]2Cc3ccccc3[C@@H]2O1 (racemic)
A: 11

====

Quick reference: pest or weed control at 0.2 % of the listed items.
Tested on: Ixodes ricinus
test.details: In vitro Warm Plate Assay for ticks
Format: in vivo
assay.setup: Ixodes ricinus, 0.2% (Table 10); read-out: percentage of ticks affected on the Warm Plate
The reply should be a number in %, with the unit left off.

Observe how each entry below is paired with its result.
Cc1ccc2c(c1)[C@H]1OCOC[C@H]1C2 (racemic)
33
Cc1ccc2c(c1)CCC(C)(CO)C2 (racemic)
71
Cc1ccc2c(c1)CC(CO)C2 (racemic)
100
CC(=O)C1(C)Cc2ccc(C)c(C)c2C1 (racemic)
38
OCC1Cc2ccccc2C1 [2,3-dihydro-1H-inden-2-ylmethanol]
100

Please find the next molecule below.
Q: Tell me its pest or weed control at 0.2 % given COCOCC1(C)Cc2ccc(C)cc2C1 (stereo not drawn) as the entry.
A: 54

====

Test system: Ixodes ricinus
test.details: In vitro Warm Plate Assay for ticks
Type: in vivo
assay.setup: 20% (w/w) in ethanol; 2 h post-application
Method: Repellent efficacy of the different compounds was assessed against the sheep tick, Ixodes ricinus. […] The repellent efficacy was assessed using the protocol of the in-vitro Warm Plate Assay as defined in Kröber T, Bourquin M, Guerin P M. A standardized in vivo and in vitro test method for evaluating tick repellents. […] In this in-vitro assay, the percentage of ticks Ixodes ricinus affected by the stimulus loaded on the warm plate was measured in order to assess the repellency effect. […]
Measured percentage of ticks affected overtime, listed per entry.
Lab book: enter the figure in %, no units written.

CC1CCC(C(C)(C)O)C(O)C1 (stereo not shown) [PMD, reference compound]
50
Cc1ccc2c(c1)CC(C)(CO)C2 (stereo not shown)
100
CCCCN(CCC(=O)OCC)C(C)=O [IR3535, reference compound]
58

Now for the compound whose percentage of ticks affected overtime we want.
Q: For the compound c1ccc2c(c1)CC1COCOC21 (stereo not shown) , give its reported percentage of ticks affected overtime.
A: 17

====

System: Aedes aegypti
test.details: In vitro Warm Body assay, mosquitoes landing on treated warm body
Format: in vivo
assay.setup: 1% in ethanol (Table 6)
quantity.kind: number of mosquitoes landed on the Warm Body
Response field accepts a number only; no unit should be typed.

Take a look at these entries with their results.
CC1OC(C)C2Cc3ccccc3C2O1 (centres unmarked)
3
CC1(C)OC[C@H]2Cc3ccccc3[C@H]2O1 (racemic)
0
C[C@@H]1OC[C@]2(C)Cc3ccccc3[C@@H]2O1 (racemic)
6

Q: Let me know recorded number of mosquitoes landed on the Warm Body for CC(=O)C1(C)Cc2ccc(C)c(C)c2C1 (racemic) , thanks.
A: 18

Q: State its number of mosquitoes landed on the Warm Body: Cc1ccc2c(c1)C[C@]1(C)COC(C)(C)O[C@H]21 (racemic)
A: 8

Where these numbers come from: patent US20260068882A1
